System: Pyricularia oryzae
Format: in vivo
Details: rice seedlings sprayed to run-off, inoculated the following day; rating relative to controls; unmarked compounds (standard test rate)
Kindly state Test C disease control rating (100 = 100% disease control, 0 = no disease control) for each of the entries shown.
One number for each entry, in %.

CC(COc1cc(F)c(F)cc1C#N)NC(=O)C(C#N)C(C)C(C)(C)C (mixture of isomers) | 32

Quick one: give me Test C disease control rating (100 = 100% disease control, 0 = no disease control) for each item below, same order please.
1. CCC1(C(=O)NC(C)COc2ccc(Cl)c(Cl)c2)C(C)C1(Cl)Cl (centres unmarked)
2. CCC1(C(=O)NC(C)C=Cc2cc(F)ccc2F)C(C)C1(Cl)Cl (centres unmarked) [267b]
3. CCC1(C(=O)NC(C)COc2cc(F)ccc2Cl)C(C)C1(Cl)Cl (centres unmarked)
4. CCC1(C(=O)NC(C)C=Cc2cc(F)ccc2F)C(C)C1(Cl)Cl (single isomer, unassigned) [267a]
5. CCC1(C(=O)NC(C)COc2c(F)ccc(F)c2C#N)C(C)C1(Cl)Cl (mixture of isomers)
6. CCC1(C(=O)NC(C)CCc2ccccc2)C(C)C1(Cl)Cl (mixture of isomers)
7. CCC1(C(=O)NC(C)COc2c(F)ccc(F)c2F)C(C)C1(Cl)Cl (centres unmarked)
8. CCCc1cccc(C#N)c1OCC(C)NC(=O)C1(CC)C(C)C1(Cl)Cl (mixture of isomers)

1: 53; 2: 100; 3: 100; 4: 97; 5: 94; 6: 99; 7: 94; 8: 74

Quick one: give me Test C disease control rating (100 = 100% disease control, 0 = no disease control) for each item below, same order please.
1. CC(C)(C)C(C#N)C(=O)NC/C=C/c1ccc(F)cc1F (racemic)
2. C=CCC(C#N)C(=O)NC(C)C(Oc1ccccc1C#N)c1ccccc1 (mixture of isomers)
3. CCC1(C(=O)NCC=Cc2cccc(F)c2)C(C)C1(Cl)Cl (centres unmarked)
4. CCC1(C(=O)NC(C)COc2cc(Cl)ccc2C#N)C(C)C1(Cl)Cl (centres unmarked)

53
97
90
97

Quick one: give me Test C disease control rating (100 = 100% disease control, 0 = no disease control) for each item below, same order please.
1. Cc1ccc(F)c(OCC(C)NC(=O)C(C#N)C(C)(C=CF)CF)c1 (mixture of isomers)
2. CCc1cccc(OCC(C)NC(=O)C2(CC)C(C)C2(Cl)Cl)c1 (centres unmarked)
3. C=CC(C)(CF)C(C#N)C(=O)NC(C)COc1cc(F)ccc1Cl (mixture of isomers)
4. CC(C=Cc1ccccc1)NC(=O)C(C#N)C(C)(C)C (mixture of isomers)

[100, 94, 100, 52]

* * *

Kindly state Test A disease control rating (100 = 100% disease control, 0 = no disease control) for each of the entries shown.
System: Eiysiphe graminis f. sp. tritici
Assay: Test A: wheat powdery mildew, preventive spray on wheat seedlings
Type: in vivo
Details: wheat seedlings sprayed to run-off, inoculated the following day; rating relative to controls; unmarked compounds (standard test rate)
One number for each entry, in %.

Completed entries (count: 3):
CC(COc1ccccc1F)NC(=O)C1(C)CC1(Cl)Cl (mixture of isomers) [compound 315] | 60
CCC1(C(=O)NCC=C(C)c2cc(Cl)ccc2Cl)C(C)C1(Cl)Cl (stereo not shown) [compound 271] | 77
CCC(C#N)C(=O)NC(C)C(Oc1cc(F)ccc1C#N)c1ccccc1 (mixture of isomers) [compound 286] | 76

Given the compound CC(C)C(C#N)C(=O)NC(C)C(Oc1ccccc1C#N)c1ccccc1 (mixture of isomers) [compound 290] , what is its reported Test A disease control rating (100 = 100% disease control, 0 = no disease control)?
59

* * *

System: Eiysiphe graminis f. sp. tritici
Test: Test A: wheat powdery mildew, preventive spray on wheat seedlings
Assay type: in vivo
Details: wheat seedlings sprayed to run-off, inoculated the following day; rating relative to controls; unmarked compounds (standard test rate)
observed_property: Test A disease control rating (100 = 100% disease control, 0 = no disease control) (%)
Numbers only, in %.

Quick one: give me Test A disease control rating (100 = 100% disease control, 0 = no disease control) for each item below, same order please.
1. CCC1(C(=O)NC(C)COc2cc(C(C)(C)C)ccc2C#N)C(C)C1(Cl)Cl (stereo not drawn)
2. CCC1(C(=O)NC(C)COc2cc(Cl)ccc2F)C(C)C1(Cl)Cl (stereo not drawn)
3. C=C(F)C(C)(C)C(C#N)C(=O)NC(C)COc1cc(F)ccc1Cl (mixture of isomers)
4. CC(COc1cc(F)ccc1Cl)NC(=O)C(C#N)C(C)(C)C=CF (mixture of isomers)
5. C=CCC(C#N)C(=O)NC(C)C(Oc1cc(F)ccc1C#N)c1ccccc1 (mixture of isomers)

[53, 0, 62, 62, 0]

Quick one: give me Test A disease control rating (100 = 100% disease control, 0 = no disease control) for each item below, same order please.
1. CCC1(C(=O)NC(C)COc2cc(Cl)c(Cl)cc2Cl)C(C)C1(Cl)Cl (stereo not drawn)
2. CCCc1cccc(C#N)c1OCC(C)NC(=O)C1(CC)C(C)C1(Cl)Cl (mixture of isomers)
3. CCCc1cccc(C#N)c1OCC(C)NC(=O)C(C#N)C(C)C(C)(C)C (mixture of isomers)
4. C=CC(C)(CF)C(C#N)C(=O)NC(C)COc1cc(Cl)ccc1Cl (mixture of isomers)
5. CCC1(C(=O)NC(C)C=Cc2cc(F)ccc2F)C(C)C1(Cl)Cl (single isomer, unassigned) [267a]
6. C=CC(C)(C)C(C#N)C(=O)N[C@H](C)COc1cc(Cl)ccc1Cl (single isomer, unassigned) [215b]

1. 0
2. 28
3. 0
4. 86
5. 78
6. 0

Quick one: give me Test A disease control rating (100 = 100% disease control, 0 = no disease control) for each item below, same order please.
1. CC(NC(=O)C(C#N)C(C)(C)C)C(Oc1ccccc1C#N)c1ccccc1 (mixture of isomers)
2. C=CC(C)(C)C(C#N)C(=O)NC(C)COc1cc(C)ccc1F (mixture of isomers)
3. CCC1(C(=O)NC(C)COc2cc(F)c(F)cc2C#N)C(C)C1(Cl)Cl (mixture of isomers)

1. 0
2. 0
3. 0

# get_value(readout= Test A disease control rating (100 = 100% disease control, 0 = no disease control), system= Eiysiphe graminis f. sp. tritici) for CCC1(C(=O)NC(C)CCc2ccccc2)C(C)C1(Cl)Cl (mixture of isomers)
86

* * *

Tested on: Pyricularia oryzae
Type: in vivo
Conditions: rice seedlings sprayed to run-off, inoculated the following day; rating relative to controls; unmarked compounds (standard test rate)
Kindly state Test C disease control rating (100 = 100% disease control, 0 = no disease control) for each of the entries shown.
Answers are plain numbers, in %.

CC(COc1cc(F)ccc1Cl)NC(=O)C(C#N)C(C)(C)C=CF (mixture of isomers) [compound 222] | 100
CC(C)C(C#N)C(=O)NC(C)C(Oc1cc(F)ccc1C#N)c1ccccc1 (mixture of isomers) [compound 289] | 90

Quick one: give me Test C disease control rating (100 = 100% disease control, 0 = no disease control) for each item below, same order please.
1. CC(COc1ccccc1F)NC(=O)C1(C)CC1(Cl)Cl (mixture of isomers) [compound 315]
2. CCC1(C(=O)NC(C)COc2c(Cl)cc(F)cc2Cl)C(C)C1(Cl)Cl (stereo not shown) [compound 251]
3. CC(COc1cc(OC(F)F)ccc1C#N)NC(=O)C(C#N)C(C)C(C)(C)C (mixture of isomers) [compound 277]
4. C=CC(C)(CC)C(C#N)C(=O)NC(C)COc1cc(F)ccc1F (mixture of isomers) [compound 296]
5. CC(COc1cc(F)ccc1OC(F)F)NC(=O)C(C#N)C(C)(C)C (mixture of isomers) [compound 292]

1. 51
2. 94
3. 0
4. 100
5. 99

* * *

System: Eiysiphe graminis f. sp. tritici
Experiment: Test A: wheat powdery mildew, preventive spray on wheat seedlings
Assay type: in vivo
Details: wheat seedlings sprayed to run-off, inoculated the following day; rating relative to controls; unmarked compounds (standard test rate)
Kindly state Test A disease control rating (100 = 100% disease control, 0 = no disease control) for each of the entries shown.
Give bare numbers, in %.

CCC1(C(=O)NC(C)C=Cc2ccccc2)C(C)C1(Cl)Cl (mixture of isomers) [compound 263] | 86
Cc1cccc(C#N)c1OCC(C)NC(=O)C(C#N)C(C)C(C)(C)C (mixture of isomers) [compound 280] | 56
CCC1(C(=O)NCC=Cc2cccc(F)c2)C(C)C1(Cl)Cl (stereo not shown) [compound 264] | 0

Quick one: give me Test A disease control rating (100 = 100% disease control, 0 = no disease control) for each item below, same order please.
1. CC(C=Cc1ccccc1)NC(=O)C(C#N)C(C)(C)C (mixture of isomers) [compound 228]
2. C=CC(C)(CF)C(C#N)C(=O)NC(C)COc1cc(F)ccc1F (mixture of isomers) [compound 218]
3. CCC1(C(=O)NC(C)COc2ccc(Cl)c(Cl)c2Cl)C(C)C1(Cl)Cl (stereo not shown) [compound 243]
4. CC(COc1ccccc1C(F)(F)F)NC(=O)C1(C)CC1(Cl)Cl (mixture of isomers) [compound 312]
5. CC(C)C(C#N)C(=O)NC(C)C(Oc1cc(F)ccc1C#N)c1ccccc1 (mixture of isomers) [compound 289]

1: 95; 2: 86; 3: 38; 4: 0; 5: 0

Quick one: give me Test A disease control rating (100 = 100% disease control, 0 = no disease control) for each item below, same order please.
1. C=CC(C)(CC)C(C#N)C(=O)NC(C)COc1cc(F)ccc1F (mixture of isomers) [compound 296]
2. CCC1(C(=O)NC(C)C=Cc2ccc(Cl)cc2Cl)C(C)C1(Cl)Cl (stereo not shown) [compound 266]
3. CC(C=Cc1ccccc1F)NC(=O)C(C#N)C(C)(C)C (mixture of isomers) [compound 308]
4. C=CCc1cccc(C#N)c1OCC(C)NC(=O)C(C#N)C(C)C(C)(C)C (mixture of isomers) [compound 275]
5. CCC1(C(=O)NC(C)COc2ccc(Cl)c(Cl)c2)C(C)C1(Cl)Cl (stereo not shown) [compound 230]
6. Cc1ccc(F)c(OCC(C)NC(=O)C(C#N)C(C)(C=CF)CF)c1 (mixture of isomers) [compound 226]
7. CC(COc1cc(F)ccc1OC(F)(F)C(F)F)NC(=O)C(C#N)C(C)(C=CF)CF (mixture of isomers) [compound 225]
8. CCC1(C(=O)NC(C)COc2ccc(F)c(F)c2F)C(C)C1(Cl)Cl (stereo not shown) [compound 238]

1. 0
2. 63
3. 86
4. 0
5. 0
6. 0
7. 91
8. 62
